- assayed_target: Anti-CD28 scFv (VH - linker 1 - VL) (biotinylated (site not stated))
- Sequence (scFv, as listed by the source): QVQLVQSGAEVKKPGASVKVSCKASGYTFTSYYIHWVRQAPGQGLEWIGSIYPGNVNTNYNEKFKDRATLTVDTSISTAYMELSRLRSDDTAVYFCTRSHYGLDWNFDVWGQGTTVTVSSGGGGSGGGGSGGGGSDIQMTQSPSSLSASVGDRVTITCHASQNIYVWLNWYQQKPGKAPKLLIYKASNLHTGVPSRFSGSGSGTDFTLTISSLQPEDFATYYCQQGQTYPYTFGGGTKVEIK
- test_method_notes: phage binding ELISA; biotinylated anti-CD28 scFv on neutravidin plate, clonal phage supernatant, anti-M13 HRP detection
Where no end group is shown, it is not given here.
property_name: CD28 scFv signal

Request: Quick one: CD28 scFv signal of MNWCPRDMWYQCFN (peptide, not shown: large carriers, cysteine pairing not given here; also: displayed on phage by fusion to pIII, linker and pIII sequence not given here) [Phage-54 clonal phage peptide] ?
Response: 1.95
